Tested on: DeltatarO mutant
Experiment: S. aureus survival, RN4220 and DeltatarO strains – OD600, teichoic acid synthesis inhibitors, primary screen (AID 463173)
Conditions: S. aureus RN4220 wild type/DeltatarO growth, OD600, 18 h, active compounds read low, screened at 18.75 µg/mL (by protocol)
The whole screen tested about 52,000 compounds, of which about 4,300 (8.3%) were called active. Shown is part of a subset that was picked to be rich in actives.
Lab note: cut-off is 80%. Strictly less in survival is Condition met. Exactly 80% or more is Condition not met.

                                   compound              group
0         Cc1ccc(Cl)cc1Nc1nc2ccccc2c2nncn12  Condition not met
1  CCN1C(=O)c2ccccc2Sc2ccc(NC(=O)c3ccc(C#N)cc3)cc21  Condition not met
2  Cc1cccc(C)c1NC(=O)Cn1cc(C(=O)C2CC2)c2ccccc21      Condition met
3  CCc1c(-c2ccccc2)nc2ccccc2c1C(=O)NCCc1ccccc1      Condition met
4          COc1cccc(Nc2nc3ccccc3c3nncn23)c1  Condition not met
5          Cc1ccc(Nc2nc3ccccc3c3nncn23)cc1C      Condition met
6  COc1cccc2c1Oc1ncccc1N(c1ccc(C(=O)NCc3ccccc3C)s1)C2  Condition not met
7  CCc1ccc2oc(C(=O)Nc3cc(C)ccc3C)cc(=O)c2c1      Condition met
8  Cc1sc(-n2c(C)cc(/C=C(\C#N)C(=O)NCc3ccco3)c2C)c(C#N)c1C  Condition not met
9  CCCOc1ccc(C(=O)N(Cc2ccc(N(C)C)cc2)CC2CCCO2)cc1 (stereo unspecified)      Condition met

---

Tested on: DeltatarO mutant
Assay: S. aureus survival, RN4220 and DeltatarO strains – OD600, teichoic acid synthesis inhibitors, primary screen (AID 463173)
Settings: S. aureus RN4220 wild type/DeltatarO growth, OD600, 18 h, active compounds read low, screened at 18.75 µg/mL (by protocol)
Out of some 52,000 compounds screened, about 4,300 (8.3%) were called active. The full list was thinned out, with actives kept by preference.
Lab note: cut-off is 70%. Strictly less in survival is True. Exactly 70% or more is False.

>>> print(df.to_string())
                                   molecule      assay_system  group
0  O=C(CSc1nc2c(c(=O)[nH]1)CCC2)Nc1cccc(O)c1  DeltatarO mutant  False
1  CCc1ccc(CNC(=O)COc2cc(=O)n(CC)c3ccccc23)cc1  DeltatarO mutant   True
2  CCOC(=O)c1cc(-c2ccccc2)n(CC(=O)NC(C)c2ccccc2)c1C (stereo not given)  DeltatarO mutant  False
3        CCOc1ccc(/C=C/C(=O)NCc2ccco2)cc1OC  DeltatarO mutant  False
4  COc1ccc(CNc2oc(-c3ccc(COc4ccc(Cl)cc4)o3)nc2C#N)cc1  DeltatarO mutant  False
5  CCn1c(=O)cc(OCC(=O)NCc2ccccc2OC)c2ccccc21  DeltatarO mutant   True
6  CCn1c(=O)cc(OCC(=O)N(C)c2cc(Cl)ccc2C)c2ccccc21  DeltatarO mutant   True
7  COc1ccc(CNC(=O)C(CC(C)C)NS(=O)(=O)c2ccc3c(c2)CCN3C(C)=O)cc1 (stereo not given)  DeltatarO mutant  False
8  Cc1cccc(-c2cc(NC(=O)C(C)(C)C)n(-c3ccccc3)n2)c1  DeltatarO mutant  False

---

Tested on: DeltatarO mutant
Test: S. aureus survival, RN4220 and DeltatarO strains – OD600, teichoic acid synthesis inhibitors, primary screen (AID 463173)
Settings: S. aureus RN4220 wild type/DeltatarO growth, OD600, 18 h, active compounds read low, screened at 18.75 µg/mL (by protocol)
The whole screen tested about 52,000 compounds, of which about 4,300 (8.3%) were called active. For the sample, actives were picked, then their nearest neighbours and some compounds at random.
# survival per record follows
Observed Property: survival

>>> df
                                   compound           result
0  COc1ccc(CNc2nc(-c3ccccc3)nn2C(=O)c2ccccc2OC)cc1  102% (inactive)
1     Cc1ccc(NC(=O)CSc2nnc(C)c(=O)[nH]2)cc1   70% (inactive)
2  CN(c1ccc(Cl)cc1)S(=O)(=O)c1nnc(NC(=O)C2CCCCC2)s1  106% (inactive)
3  COc1ccccc1NC(=O)c1oc2ccccc2c1NC(=O)Cc1ccccc1   78% (inactive)
4  Cc1ccc(CCNC(=O)C(CC(C)C)NS(=O)(=O)c2ccc3c(c2)oc(=O)n3C)cc1 (stereo not given)   93% (inactive)

---

# survival per record follows
Test system: DeltatarO mutant
Assay: S. aureus survival, RN4220 and DeltatarO strains – OD600, teichoic acid synthesis inhibitors, primary screen (AID 463173)
Settings: S. aureus RN4220 wild type/DeltatarO growth, OD600, 18 h, active compounds read low, screened at 18.75 µg/mL (by protocol)
Among all 52,000 compounds or so, about 4,300 (8.3%) were called active. This excerpt belongs to a sample that is enriched for actives.
Observed Property: survival (%)

>>> print(df.to_string())
                                    molecule  observed_property  result_number
 0  COc1ccc(-c2nc3c4cnn(-c5ccccc5F)c4ncn3n2)cc1           survival             59
 1   O=C(NCc1ccccc1Cl)c1cc2c(s1)-c1ccccc1SC2           survival             65
 2  O=C(NCc1cccc(Cl)c1)c1cc2c(s1)-c1ccccc1OC2           survival             50
 3  COc1ccc(Nc2ncnc3scc(-c4ccc(F)cc4)c23)cc1           survival             92
 4  O=C(NC12CCC(O)C(SC1)C2O)c1ccccc1 (configuration not stated)           survival            109
 5  O=C(NCCc1ccc(Cl)cc1)c1cc2c(s1)-c1ccccc1OC2           survival             61
 6  Cc1cc(O)c(C(c2ccc(F)cc2)N2CCCCC2)c(=O)n1Cc1ccco1 (configuration not stated)           survival             75
 7  CCOc1ccc(N(CC)C(=O)c2cc3c(s2)-c2ccc(Cl)cc2SC3)cc1           survival             81
 8     COc1ccc(CNC(=O)CCc2cn(C)c3ccccc23)cc1           survival             57
 9  Cc1cc2[nH]c(=O)c(=O)[nH]c2cc1S(=O)(=O)NCc1ccc(F)cc1           survival            112
10  COc1cccc(C(=O)Nc2c(C(=O)c3ccc(F)cc3)oc3ccccc23)c1           survival             66
11  COc1ccccc1-n1nc(-c2ccccc2)c2cnc3cc(C(F)(F)F)ccc3c21           survival             81
12  CCCN(C(=O)c1cc2c(s1)-c1ccccc1OC2)c1ccccc1F           survival             -4
13  CCc1ccccc1N(CC)C(=O)c1cc2c(s1)-c1ccccc1SC2           survival             -1
14  CCCC1(C(=O)OCC)NC(c2ccccc2F)C2C(=O)N(c3ccccc3)C(=O)C21 (configuration not stated)           survival             88
15  CCN(C(=O)c1cc2c(s1)-c1ccccc1OC2)c1cc(Cl)ccc1OC           survival             15
16  COc1ccc(-c2csc3ncnc(Nc4cccc(F)c4)c23)cc1           survival              0
17  CC(=O)Nc1ccc(S(=O)(=O)N2CCC(NC(=O)Nc3cccc(F)c3)CC2)cc1           survival             91
18  Cc1ccc(CNS(=O)(=O)c2cc3[nH]c(=O)c(=O)[nH]c3cc2C)cc1           survival             47
19  CCc1ccccc1N(CC)C(=O)c1cc2c(s1)-c1ccccc1OC2           survival             -5
20  COc1ccc(CCNC(=O)c2cc3c(s2)-c2ccccc2OC3)cc1OC           survival             49
21  CCOc1ccc(N(CC)C(=O)c2cc3c(s2)-c2ccccc2OC3)cc1           survival             76

---

# survival per record follows
Test system: DeltatarO mutant
Assay: S. aureus survival, RN4220 and DeltatarO strains – OD600, teichoic acid synthesis inhibitors, primary screen (AID 463173)
Conditions: S. aureus RN4220 wild type/DeltatarO growth, OD600, 18 h, active compounds read low, screened at 18.75 µg/mL (by protocol)
In all, about 52,000 compounds went through this assay and about 4,300 (8.3%) were called active. This is one part of a sample in which actives are shown more often than they occur.
Observed Property: survival (%)

>>> df
                                    compound  result_number
 0  O=C1CC(c2nnc(Cc3c(F)cccc3Cl)o2)CN1c1ccccc1 (stereo unspecified)            129
 1  COc1ccc(CN2C(=O)C(NC(=O)c3ccccc3OC)(C(F)(F)F)N=C2c2ccccc2)cc1 (stereo unspecified)             87
 2  Cc1cc(C)cc(NC(=O)c2cc3c(=O)n(Cc4ccco4)ccc3nc2C)c1             73
 3          ON(Cn1nnc2ccccc21)Cn1nnc2ccccc21            102
 4  Cc1cc2nn(-c3ccccc3)nc2cc1NC(=O)Cc1ccc(Cl)cc1             89
 5  COc1cccc(COC(=O)c2ccc(-c3nnn(Cc4ccccc4)n3)cc2)c1            126
 6  COc1cccc(COC(=O)c2ccc(-c3nnn(Cc4cccc(OC)c4)n3)cc2)c1             67
 7     O=C(NCCCc1ccccc1)c1nn(-c2ccccc2)nc1CO             77
 8  O=C(Cc1ccc(Cl)cc1)Nc1ccc2nn(-c3ccccc3)nc2c1             81
 9  O=C(CCc1ccccc1)NCc1ccc2c(c1)CCN2C(=O)c1ccc(Cl)cc1             77
10  COc1ccccc1N1CCN(Cc2cc(COC(C)C)c3cccnc3c2O)CC1             84
